# assay: Pharmacokinetic analysis in rats
# Type: in vivo, rat
# conditions: male, SD, rat, plasma, other: intravenous and oral; rats, intravenous and oral dosing; read-out: elimination half-life in plasma (converted)
quantity.name: half-life

Query: half-life; subject: CC(C)(C[C@H](N)C(=O)O)C(F)F [NV-5138]
Reply: ~3 h

###

# assay: Pharmacokinetic analysis in rats
# Assay type: in vivo, rat
# conditions: male, SD, rat, plasma, oral, 5 mg/kg, male SD rats, IV 1 mg/kg and PO 5 mg/kg
quantity.name: bioavailability (%)
Numbers only, in %.

Query: bioavailability; subject: CC(C)(C[C@H](N)C(=O)O)C(F)F [NV-5138]
Reply: 100

Values from paper PMC6412019
